- Tested on: Rattus norvegicus
- PROCEDURE_SUMMARY: Analgesic activity in rat assessed as pain threshold time at 10 mg/kg, po measured at 1.5 hrs post dose by hot plate method (reference value: 19.1 to 21.2 sec)
- Assay type: functional
QUANTITY_KIND: Time
# do not omit the unit; it follows the number

## Input Using Rattus norvegicus as the test system, report measured Time of O=[N+]([O-])c1ccc(N2CCN(Cc3ccc4c(c3)OCCO4)CC2)cc1 .
## Output 21.2 s

## Input Using Rattus norvegicus as the test system, report measured Time of FC(F)(F)c1cccc(N2CCN(Cc3ccc4c(c3)OCCO4)CC2)c1 .
## Output 23.1 s

## Input Using Rattus norvegicus as the test system, report measured Time of COc1ccc(N2CCN(Cc3ccc4c(c3)OCCO4)CC2)cc1 .
## Output 22.3 s

## Input Using Rattus norvegicus as the test system, report measured Time of Fc1ccc(N2CCN(Cc3ccc4c(c3)OCCO4)CC2)cc1 .
## Output 19.9 s

## Input Using Rattus norvegicus as the test system, report measured Time of O=C(O)Cc1ccccc1Nc1c(Cl)cccc1Cl [DICLOFENAC] .
## Output 22.3 s

* * *

Task for the reader: assign each of the following compounds its reported inhibition in vivo at 10 mg/kg.
- Tested on: Rattus norvegicus
- PROCEDURE_SUMMARY: Anti-inflammatory activity in rat assessed as inhibition of carrageenan-induced paw edema at 10 mg/kg, po administered 30 mins before carrageenan challenge measured after 3 hrs relative to control
- Assay type: functional
Report the value in % with no unit label.

## Input Determine its reported inhibition in vivo at 10 mg/kg: c1ccc(N2CCN(Cc3ccc4c(c3)OCCO4)CC2)nc1
## Output 55

## Input Determine its reported inhibition in vivo at 10 mg/kg: O=[N+]([O-])c1ccc(N2CCN(Cc3ccc4c(c3)OCCO4)CC2)cc1
## Output 79

## Input Determine its reported inhibition in vivo at 10 mg/kg: Clc1cccc(N2CCN(Cc3ccc4c(c3)OCCO4)CC2)c1Cl
## Output 28

## Input Determine its reported inhibition in vivo at 10 mg/kg: COc1cccc(N2CCN(Cc3ccc4c(c3)OCCO4)CC2)c1
## Output 62

## Input Determine its reported inhibition in vivo at 10 mg/kg: Fc1ccc(N2CCN(Cc3ccc4c(c3)OCCO4)CC2)cc1
## Output 82

* * *

- Tested on: Rattus norvegicus
- PROCEDURE_SUMMARY: Anti-inflammatory activity in rat assessed as inhibition of carrageenan-induced paw edema at 10 mg/kg, po administered 30 mins before carrageenan challenge measured after 3 hrs relative to control
- Format: functional
Where inhibition in vivo at 10 mg/kg equals or exceeds 40%, the correct label is met; where it does not, the label is not met.

## Input Has Clc1cccc(N2CCN(Cc3ccc4c(c3)OCCO4)CC2)c1 a recorded inhibition in vivo at 10 mg/kg greater than or equal to 40%?
## Output not met

## Input Has c1ccc(N2CCN(Cc3ccc4c(c3)OCCO4)CC2)cc1 a recorded inhibition in vivo at 10 mg/kg greater than or equal to 40%?
## Output not met

## Input Has c1ccc(C(c2ccccc2)N2CCN(Cc3ccc4c(c3)OCCO4)CC2)cc1 a recorded inhibition in vivo at 10 mg/kg greater than or equal to 40%?
## Output not met

## Input Has COc1ccc(N2CCN(Cc3ccc4c(c3)OCCO4)CC2)cc1 a recorded inhibition in vivo at 10 mg/kg greater than or equal to 40%?
## Output met

## Input Has Cc1ccc(N2CCN(Cc3ccc4c(c3)OCCO4)CC2)c(C)c1 a recorded inhibition in vivo at 10 mg/kg greater than or equal to 40%?
## Output not met
